Molecular target: Human Recombinant ROCK-II Enzyme (ROKα/ROCK-II, aa 11-552) (Homo sapiens)
Construct: (ROKα/ROCK-II, (aa 11-552), human active); purchased Upstate Biotechnology Co., Lake Placid, N.Y. 14-451
Sequence (O75116 11-552): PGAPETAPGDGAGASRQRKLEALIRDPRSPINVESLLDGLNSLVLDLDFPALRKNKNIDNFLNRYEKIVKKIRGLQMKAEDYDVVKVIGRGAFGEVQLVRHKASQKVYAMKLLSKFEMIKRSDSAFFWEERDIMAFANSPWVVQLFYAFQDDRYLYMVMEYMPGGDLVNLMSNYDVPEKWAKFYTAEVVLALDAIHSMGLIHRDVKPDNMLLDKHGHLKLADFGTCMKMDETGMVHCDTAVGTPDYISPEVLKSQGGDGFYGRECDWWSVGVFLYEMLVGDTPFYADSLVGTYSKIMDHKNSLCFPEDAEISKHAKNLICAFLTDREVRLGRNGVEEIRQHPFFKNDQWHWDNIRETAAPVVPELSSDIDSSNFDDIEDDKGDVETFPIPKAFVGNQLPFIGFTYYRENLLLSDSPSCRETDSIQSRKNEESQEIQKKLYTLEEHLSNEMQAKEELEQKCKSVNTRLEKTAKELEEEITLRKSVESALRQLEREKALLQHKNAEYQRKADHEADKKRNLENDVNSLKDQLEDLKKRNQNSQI
Assay: ROCK-II inhibition, fluorescence polarization assay (IMAP ROCK II kit)
Type: biochemical
Conditions: substrate 200 nM, ATP 10 μM, 60 min at 23° C., read-out: Enzyme Inhibition Constants (IC50) against Human Recombinant ROCK-II Enzyme
Where a name gives a salt, the structure may show the parent alone.
Reported IC50 maps to class as: bin 0 (below 0.7 nM), bin 1 (0.7 nM to below 6 nM), bin 2 (6 nM or more)

A selection of reference data follows.
[[record]]
compound = "CN(C)CCCOc1nc(-c2ccncc2)cnc1N(C)C [Example 36, hydrochloride]"
assigned_label = "bin 2"

[[record]]
compound = "CN(C)c1ncc(-c2ccnc3[nH]ccc23)nc1N1CCN(CCO)CC1"
assigned_label = "bin 0"

[[record]]
compound = "Nc1ncc(-c2ccncc2)nc1OC1CCNCC1"
assigned_label = "bin 1"

[[record]]
compound = "c1cc(-c2cnc(N3CCCC3)c(OC3CCNCC3)n2)c2cc[nH]c2n1"
assigned_label = "bin 0"

[[record]]
compound = "OCCN1CCN(c2nc(-c3ccncc3)cnc2N2CCCC2)CC1"
assigned_label = "bin 0"

[[record]]
compound = "CN1CCCN(c2nc(-c3cccc4[nH]ncc34)cnc2N)CC1 [Example 5, dihydrochloride]"
assigned_label = "bin 2"

[[record]]
compound = "c1cc(-c2cnc(N3CCCCCC3)c(NC3CCCNC3)n2)ccn1 (centres unmarked) [Example 51, dihydrochloride]"
assigned_label = "bin 0"

[[record]]
compound = "Nc1ncc(-c2ccncc2)nc1N1CCC(CO)CC1"
assigned_label = "bin 2"

[[record]]
compound = "CN(C)C1CCN(c2nc(-c3ccncc3)cnc2N)CC1"
assigned_label = "bin 2"

[[record]]
compound = "CN1CCCN(c2nc(-c3ccncc3)cnc2N2CCCCC2)CC1 [Example 48, hydrochloride]"
assigned_label = "bin 0"


Input: Which category does the recorded IC50 put `Nc1ncc(-c2ccncc2)nc1N1CCN(CCCO)CC1` in?
Output: bin 1

Input: Which category does the recorded IC50 put `CN1CCCN(c2nc(-c3cc[nH]n3)cnc2N)CC1` in?
Output: bin 1

Input: Which category does the recorded IC50 put CN1CCCC(Nc2nc(-c3ccncc3)cnc2N)C1 (centres unmarked) in?
Output: bin 1

Input: Which category does the recorded IC50 put Nc1ncc(-c2ccncc2)nc1NC1CCCNC1 (centres unmarked) in?
Output: bin 0

###

Assign IC50 to each entry below.
Target: Human Recombinant ROCK-II Enzyme (ROKα/ROCK-II, aa 11-552) (Homo sapiens)
Construct: (ROKα/ROCK-II, (aa 11-552), human active); purchased Upstate Biotechnology Co., Lake Placid, N.Y. 14-451
Experiment: ROCK-II inhibition, fluorescence polarization assay (IMAP ROCK II kit)
Assay type: biochemical
Conditions: substrate 200 nM, ATP 10 μM, 60 min at 23° C., read-out: Enzyme Inhibition Constants (IC50) against Human Recombinant ROCK-II Enzyme
Counter-ions that a name gives are not always drawn.
Give bare numbers, in nM.

Worked cases, IC50 given:
[[record]]
molecule = "Nc1ncc(-c2ccncc2)nc1OC1CCCNC1 (stereo not drawn)"
readout_label = "IC50"
experimental_value = 0.68

[[record]]
molecule = "CN1CCCN(c2nc(-c3ccncc3)cnc2NCCO)CC1 [Example 28, hydrochloride]"
readout_label = "IC50"
experimental_value = 3

[[record]]
molecule = "CN1CCC(Oc2nc(-c3ccncc3)cnc2N)CC1"
readout_label = "IC50"
experimental_value = 5.6

[[record]]
molecule = "CCN(CC)c1ncc(-c2ccncc2)nc1N1CCCN(C)CC1 [Example 37, hydrochloride]"
readout_label = "IC50"
experimental_value = 6.7

[[record]]
molecule = "CNc1ncc(-c2ccncc2)nc1N1CCCN(C)CC1 [Example 25, hydrochloride]"
readout_label = "IC50"
experimental_value = 2.4


For the 3 molecules below, give their IC50 values.
1. CNc1ncc(-c2ccncc2)nc1NC1CCCNC1 (stereo not drawn) [Example 26, hydrochloride]
2. CN1CCCN(c2nc(-c3ccncc3)cnc2N2CCOCC2)CC1 [Example 52, trihydrochloride]
3. CN1CCCN(c2nc(-c3ccncc3)cnc2N2CCCCCC2)CC1 [Example 50, hydrochloride]

Output:
1: 2.1; 2: 6.3; 3: 0.02

###

Assign pIC50 to each entry below.
Target: Human Recombinant ROCK-II Enzyme (ROKα/ROCK-II, aa 11-552) (Homo sapiens)
Construct: (ROKα/ROCK-II, (aa 11-552), human active)
Assay: ROCK-II inhibition, fluorescence polarization assay (IMAP ROCK II kit)
Details: substrate 200 nM, ATP 10 μM, 60 min at 23° C., read-out: Enzyme Inhibition Constants (IC50) against Human Recombinant ROCK-II Enzyme
Counter-ions that a name gives are not always drawn.
One number for each entry, as −log10 of the molar value.

[[record]]
compound = "CN(C)c1ncc(-c2ccncc2)nc1OC1CCNCC1 [Example 35, hydrochloride]"
tested_on = "Human Recombinant ROCK-II Enzyme (ROKα/ROCK-II, aa 11-552) (Homo sapiens)"
experimental_value = 9.03

[[record]]
compound = "Cc1cnccc1-c1cnc(N)c(N2CCCN(C)CC2)n1 [Example 2, hydrochloride]"
tested_on = "Human Recombinant ROCK-II Enzyme (ROKα/ROCK-II, aa 11-552) (Homo sapiens)"
experimental_value = 7.24

[[record]]
compound = "c1cc(-c2cnc(N3CCCC3)c(NC3CCCNC3)n2)ccn1 (stereo not shown) [Example 45, dihydrochloride]"
tested_on = "Human Recombinant ROCK-II Enzyme (ROKα/ROCK-II, aa 11-552) (Homo sapiens)"
experimental_value = 9.60


Moving on to the next compound.
Input: // lookup pIC50 for COCCNc1ncc(-c2ccncc2)nc1N1CCCN(C)CC1 [Example 27, hydrochloride]
Output: 8.28
